# System: ATS95
# method: qHTS profiling for inhibitors of Plasmodium falciparum proliferation (AID 504749); note: nearly all actives have a fitted effect of over 60% in size
# experimental.context: P. falciparum in erythrocytes, SYBR Green DNA, 72 h; series mostly up to 28.7 µM
Results filed as inconclusive are left out. The source made the active and inactive calls. Calls come from the whole dose curve; as a rule, active = well fitted inhibition curve with a large enough effect; inconclusive = small, poorly fitted or top-dose-only effect; inactive = flat fitted curve, though single readings scatter.
Outcomes: true (active), false (inactive)

COc1ccc(/C=N/NC(=O)c2ccncc2)c(C(=O)O)c1OC; false
C[C@]12CCC(=O)C[C@@H]1CC[C@@H]1[C@@H]2CC[C@]2(C)C=CC[C@@H]12; false
CN(C)C=Nc1c(I)cc(I)c(CCC(=O)O)c1I; false
O=S(=O)(O)CCCS(=O)(=O)O; false
O=P(O)(O)OP(=O)(O)OP(=O)(O)O; false
CC(C)OC(=O)Nc1ccc2nc(-c3cscn3)[nH]c2c1; false
CCOc1ccc(S(=O)(=O)O)c2cccnc12; false
Cc1ccc(C(C)(C)c2ccc(C)cc2)cc1; false
C[C@H](CCCC(C)(C)O)[C@H]1CC[C@H]2[C@@H]3CC=C4C[C@@H](O)CC[C@]4(C)[C@H]3CC[C@]12C; false
CC(C)O; false
CC1CC(O)CC(C)(C)C1 (stereo not given); false
Nc1nc(=O)n([C@@H]2CS[C@H](CO)O2)cc1F; false
CC(C)c1ncc([N+](=O)[O-])n1C; false
CN(C)CCCSc1ccccc1NC(=O)/C=C/c1ccccc1; false
CCCCCCCCCCCCCCCCCC[N+](C)(C)CCC[Si](OC)(OC)OC; false
NCCO/C=C/[C@H](N)C(=O)O; false
CC1=CC(=C(c2ccc(N)cc2)c2ccc(N)cc2)C=CC1=N; true
CCCCCCCCCCCCCCCCCCCCCC(=O)Nc1ccn([C@@H]2O[C@H](CO)[C@@H](O)[C@@H]2O)c(=O)n1; false
CCCCC/C=C\C/C=C\C/C=C\CCCCC(=O)O; false
CC(CNC(=O)c1cccnc1)NC(=O)c1cccnc1 (stereo not given); false
CCC(C)[C@@H](N)C(=O)O (stereo not given in full); false
OCCOCCOCCO; false
O=C1c2ccccc2C(=O)C1c1ccc(Cl)cc1; false
O=C(NCCNCC(O)COc1ccc(O)cc1)N1CCOCC1 (stereo not given); false
CN1C(=O)C[C@@H](C(=O)N[C@@H](Cc2cnc[nH]2)C(=O)N2CCC[C@H]2C(N)=O)NC1=O; false
C[Se]CC[C@H](N)C(=O)O; false
CCCCCCCCCCCCCCCCCC(=O)OC[C@@H](O)[C@H]1OC[C@H](O)[C@H]1O; false
CC(=O)Oc1cccc(C(=O)O)c1OC(C)=O; false
CC(CC=O)CCCC(C)(C)O (stereo not given); false
CC[C@H]1OC(=O)[C@H](C)[C@@H](O[C@H]2C[C@@](C)(OC)[C@@H](O)[C@H](C)O2)C(C)[C@@H](O[C@@H]2O[C@H](C)C[C@H](N(C)C)[C@@H]2O)[C@](C)(OC)C[C@@H](C)C(=O)[C@H](C)[C@@H](O)[C@]1(C)O (stereo not given in full); false
O=C1CCC(=O)N1CO; false
N=C(N)c1ccc(/C=C/c2ccc(C(=N)N)cc2O)cc1; true
CCN(CC)C(=O)c1cccnc1; false
CCCCCCCCCCCCCCCCOCCOCCOCCOCCOCCOCCOCCOCCOCCOCCOCCOCCOCCOCCOCCOCCOCCOCCOCCOCCO; true
OCC1(CO)COC(C(Cl)(Cl)Cl)OC1; false
CCCCC[C@H](O)/C=C/[C@H]1[C@H](O)CC(=O)[C@@H]1C/C=C\CCCC(=O)O; false
O=P(O)(O)CP(=O)(O)O; false
CC(/C=C/C=C(\C)C(=O)O[C@@H]1O[C@H](CO[C@@H]2O[C@H](CO)[C@@H](O)[C@H](O)[C@H]2O)[C@@H](O)[C@H](O)[C@H]1O)=C\C=C\C=C(C)\C=C\C=C(/C)C(=O)O[C@@H]1O[C@H](CO[C@@H]2O[C@H](CO)[C@@H](O)[C@H](O)[C@H]2O)[C@@H](O)[C@H](O)[C@H]1O; false
CCc1ccc(S(=O)(=O)O)cc1; false
C[C@H](N)C(=O)N[C@@H](C)P(=O)(O)O; false
CC12CCC(C[N+](C)(CCC[N+](C)(C)C)C1)C2(C)C (stereo not given); false
CCSc1ccc2c(c1)N(CCCN1CCN(C)CC1)c1ccccc1S2; false
O=C(O)C1=C(CSc2nnnn2CS(=O)(=O)O)CS[C@@H]2[C@H](NC(=O)[C@H](O)c3ccccc3)C(=O)N12; false
CCOC(=S)SSC(=S)OCC; false
Nc1nccs1; false
